From: patent US7820670B2

Reported IC50 values for a set of compounds
# SYSTEM NAME: ROCK 2 (Homo sapiens)
# Construct: purchased Molecular Devices, Sunnyvale, Calif
# METHOD NOTES: Rho kinase assay (IMAP ROCK-II kit, fluorescence polarization)
# Format: biochemical
# CONDITIONS USED: substrate 200 nM, ATP 10 μM, 60 min at 23° C.
Counter-ions that a name gives are not always drawn.
Return type: number; implicit unit µM.

Previously resolved entries follow.
c1n[nH]cc1-c1cnc2ccc(N3CCOCC3)nn12 = 56
COCCNc1ccc2ncc(C)n2n1 = 97
Cc1n[nH]c2ccc(-c3cnc4ccc(NC5CCCNC5)nn34)cc12 (centres unmarked) [Example 53, trihydrochloride] = 0.073
CCCC/C=C/c1cnc2ccc(NCCN(C)C)nn12 [Example 8, fumarate] = 65
Cc1n[nH]c2ccc(-c3cnc4ccc(N5CCNCC5)nn34)cc12 [Example 52, trihydrochloride] = 0.014

// IC50 lookup, compound = CCCC/C=C/c1cnc2ccc(NCCO)nn12 [Example 42, hydrochloride] , result: 34

// IC50 lookup, compound = CCCC/C=C/c1cnc2ccc(NCCCN(C)C)nn12 [Example 39, hydrochloride] , result: 0.77

// IC50 lookup, compound = `COc1ccc(-c2cnc3ccc(NCc4ccccn4)nn23)cc1` , result: 69

// IC50 lookup, compound = `CCCC/C=C/c1cnc2ccc(NCc3cccnc3)nn12` , result: 4.7

// IC50 lookup, compound = CCCC/C=C/c1cnc2ccc(NCCCCO)nn12 [Example 37, hydrochloride] , result: 13

// IC50 lookup, compound = `Clc1cnc2ccc(NCc3ccccn3)nn12` , result: 17

// IC50 lookup, compound = CCC/C=C/c1cnc2ccc(NCCCN3CCOCC3)nn12 [Example 18, hydrochloride] , result: 88

// IC50 lookup, compound = Cc1n[nH]c2ccc(-c3cnc4ccc(N5CCCNCC5)nn34)cc12 [Example 55, trihydrochloride] , result: 0.011

// IC50 lookup, compound = `CCCC/C=C/c1cnc2ccc(NCc3ccncc3)nn12` , result: 11

// IC50 lookup, compound = `CCCC/C=C/c1cnc2ccc(NCc3cnc(C)cn3)nn12` , result: 34

// IC50 lookup, compound = c1n[nH]cc1-c1cnc2ccc(N3CCCNCC3)nn12 [Example 56, dihydrochloride] , result: 6.7

// IC50 lookup, compound = c1cc(-c2cnc3ccc(N4CCCNCC4)nn23)ccn1 [Example 54, hydrochloride] , result: 0.33

// IC50 lookup, compound = CCCC/C=C/c1cnc2ccc(NCc3ccccn3)nn12 [Example 9, fumarate] , result: 3.7

// IC50 lookup, compound = `CCCC/C=C/c1cnc2ccc(N[C@H]3CC[C@H](O)CC3)nn12` , result: 29

// IC50 lookup, compound = CCCC/C=C/c1cnc2ccc(NCCCN3CCN(C)CC3)nn12 [Example 38, hydrochloride] , result: 97

###

# SYSTEM NAME: ROCK 1 (Homo sapiens)
Where a name gives a salt, the structure may show the parent alone.
Param label: returns y when IC50 < 20 µM, returns n otherwise, including exact equality.

Completed entries (count: 3):
CCCC/C=C/c1cnc2ccc(NCCCN)nn12 = n
Cc1n[nH]c2ccc(-c3cnc4ccc(NC5CCCNC5)nn34)cc12 (stereo not shown) [Example 53, trihydrochloride] = y
CCC/C=C/c1cnc2ccc(NCc3ccccn3)nn12 [Example 19, hydrochloride] = y

Task: Consider the compound C1=C(c2cnc3ccc(NCc4ccccn4)nn23)CCCC1 [Example 21, hydrochloride] . Is its IC50 strictly less than 20 µM?
Result: n

Task: Consider the compound c1ccc(CNc2ccc3nccn3n2)nc1 [Example 33, hydrochloride] . Is its IC50 strictly less than 20 µM?
Result: n

Task: Consider the compound `CCCC/C=C/c1cnc2ccc(NCc3cnc(C)cn3)nn12` . Is its IC50 strictly less than 20 µM?
Result: n

Task: Consider the compound CCCCCCc1cnc2ccc(NCc3ccccn3)nn12 [Example 29, hydrochloride] . Is its IC50 strictly less than 20 µM?
Result: n

Task: Consider the compound c1n[nH]cc1-c1cnc2ccc(N3CCCNCC3)nn12 [Example 56, dihydrochloride] . Is its IC50 strictly less than 20 µM?
Result: y

###

# SYSTEM NAME: ROCK 2 (Homo sapiens, UniProt O75116)
# Construct: purchased Molecular Devices, Sunnyvale, Calif
# Sequence (O75116 whole entry, species assumed): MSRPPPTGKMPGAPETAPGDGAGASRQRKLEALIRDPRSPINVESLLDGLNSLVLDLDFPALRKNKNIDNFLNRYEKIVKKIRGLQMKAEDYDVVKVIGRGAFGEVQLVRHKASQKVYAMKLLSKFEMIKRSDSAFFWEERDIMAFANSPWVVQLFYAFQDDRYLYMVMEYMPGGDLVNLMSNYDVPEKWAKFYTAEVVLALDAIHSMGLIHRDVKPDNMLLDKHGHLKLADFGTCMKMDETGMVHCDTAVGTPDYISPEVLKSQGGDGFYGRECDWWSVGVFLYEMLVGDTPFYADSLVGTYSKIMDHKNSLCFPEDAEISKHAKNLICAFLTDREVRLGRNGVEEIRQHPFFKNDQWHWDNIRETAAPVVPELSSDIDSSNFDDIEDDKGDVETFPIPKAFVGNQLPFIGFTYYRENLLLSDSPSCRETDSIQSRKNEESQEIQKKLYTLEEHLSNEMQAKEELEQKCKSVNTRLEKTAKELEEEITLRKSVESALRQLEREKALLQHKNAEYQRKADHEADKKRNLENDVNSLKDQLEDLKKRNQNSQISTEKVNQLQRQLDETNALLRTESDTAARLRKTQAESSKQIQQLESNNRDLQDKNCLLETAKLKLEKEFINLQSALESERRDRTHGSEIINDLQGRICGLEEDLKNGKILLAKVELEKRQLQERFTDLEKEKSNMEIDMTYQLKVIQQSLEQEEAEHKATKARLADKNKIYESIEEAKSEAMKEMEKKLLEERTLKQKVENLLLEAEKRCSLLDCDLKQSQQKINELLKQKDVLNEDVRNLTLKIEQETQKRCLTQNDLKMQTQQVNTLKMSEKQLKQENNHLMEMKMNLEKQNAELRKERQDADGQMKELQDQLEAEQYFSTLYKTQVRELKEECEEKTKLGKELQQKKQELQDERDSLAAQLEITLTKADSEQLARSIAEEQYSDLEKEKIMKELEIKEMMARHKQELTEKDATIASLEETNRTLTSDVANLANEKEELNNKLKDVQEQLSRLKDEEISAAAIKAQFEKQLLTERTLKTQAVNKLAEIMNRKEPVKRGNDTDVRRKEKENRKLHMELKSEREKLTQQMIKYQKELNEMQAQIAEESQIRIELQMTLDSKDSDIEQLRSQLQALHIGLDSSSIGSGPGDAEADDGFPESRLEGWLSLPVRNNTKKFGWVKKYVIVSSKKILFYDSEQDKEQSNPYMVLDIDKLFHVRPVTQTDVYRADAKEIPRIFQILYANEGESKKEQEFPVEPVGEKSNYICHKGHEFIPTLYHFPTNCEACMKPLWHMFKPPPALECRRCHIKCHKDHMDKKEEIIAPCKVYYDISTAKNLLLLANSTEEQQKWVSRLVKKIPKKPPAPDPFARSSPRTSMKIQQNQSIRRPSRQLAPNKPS
# METHOD NOTES: Rho kinase assay (IMAP ROCK-II kit, fluorescence polarization)
# Format: biochemical
# CONDITIONS USED: substrate 200 nM, ATP 10 μM, 60 min at 23° C.
Structures can show the parent of a compound that is named as a salt.
ASSAY READOUT: IC50

Previously resolved entries follow.
COCc1cnc2ccc(NCc3ccccn3)nn12 [Example 34, hydrochloride] = > 100 µM
CCCNc1ccc2ncc(-c3cc(C)cs3)n2n1 [Example 4] = > 100 µM
OCc1cnc2ccc(NCCCN3CCOCC3)nn12 [Example 24, hydrochloride] = > 100 µM
CCCC/C=C/c1cnc2ccc(NC(CC)CO)nn12 (stereo not drawn) [Example 10] = > 100 µM
c1cn2nc(NCCCN3CCOCC3)ccc2n1 [Example 35, hydrochloride] = > 100 µM
COCc1cnc2ccc(NCCCN3CCOCC3)nn12 [Example 30, hydrochloride] = > 100 µM

Proceed to the following item.
// IC50 lookup, compound = CCCCC#Cc1cnc2ccc(NCc3ccccn3)nn12 [Example 28, hydrochloride] , result: > 100 µM

###

# SYSTEM NAME: ROCK 1 (Homo sapiens)
Structures can show the parent of a compound that is named as a salt.
ASSAY READOUT: pIC50
Notebook: values listed as pIC50 are -log10 of the concentration (mol/L).

c1cc(-c2cnc3ccc(N4CCCNCC4)nn23)ccn1 [Example 54, hydrochloride] = 6.03
CCCC/C=C/c1cnc2ccc(NCc3ccncc3)nn12 [Example 43] = 5.37
CCCC/C=C/c1cnc2ccc(NCCOC)nn12 [Example 7, fumarate] = 4.46
CCCC/C=C/c1cnc2ccc(NCCCN(C)C)nn12 [Example 39, hydrochloride] = 5.96

Proceed to the following item.
# value of pIC50, ROCK 1 (Homo sapiens), item CCCC/C=C/c1cnc2ccc(NCCCCO)nn12 [Example 37, hydrochloride] = 4.64

###

Reported log10 IC50 values for a set of molecules
# SYSTEM NAME: ROCK 2 (Homo sapiens)
# Construct: purchased Molecular Devices, Sunnyvale, Calif
# METHOD NOTES: Rho kinase assay (IMAP ROCK-II kit, fluorescence polarization)
# Type: biochemical
# CONDITIONS USED: substrate 200 nM, ATP 10 μM, 60 min at 23° C.
Where a name gives a salt, the structure may show the parent alone.
Lab note - IC50 converted to log10 from values in µM.

CCCC/C=C/c1cnc2ccc(NCCOC)nn12 [Example 7, fumarate] = 1.30

// log10 IC50 lookup, molecule = CCCCCCc1cnc2ccc(NCc3ccccn3)nn12 [Example 29, hydrochloride] , result: 1.23

// log10 IC50 lookup, molecule = CCCC/C=C\c1cnc2ccc(NCCCN3CCOCC3)nn12 [Example 27, hydrochloride] , result: 1.94

// log10 IC50 lookup, molecule = CCC/C=C/c1cnc2ccc(NCc3ccccn3)nn12 [Example 19, hydrochloride] , result: 0.30

// log10 IC50 lookup, molecule = `CCCC/C=C/c1cnc2ccc(NCCCCN(C)C)nn12` , result: 0.91

###

Where a name gives a salt, the structure may show the parent alone.
Below are compounds with their log10 of IC50 as measured on ROCK 1 (Homo sapiens, UniProt Q13464).
Sequence (Q13464 whole entry, species assumed): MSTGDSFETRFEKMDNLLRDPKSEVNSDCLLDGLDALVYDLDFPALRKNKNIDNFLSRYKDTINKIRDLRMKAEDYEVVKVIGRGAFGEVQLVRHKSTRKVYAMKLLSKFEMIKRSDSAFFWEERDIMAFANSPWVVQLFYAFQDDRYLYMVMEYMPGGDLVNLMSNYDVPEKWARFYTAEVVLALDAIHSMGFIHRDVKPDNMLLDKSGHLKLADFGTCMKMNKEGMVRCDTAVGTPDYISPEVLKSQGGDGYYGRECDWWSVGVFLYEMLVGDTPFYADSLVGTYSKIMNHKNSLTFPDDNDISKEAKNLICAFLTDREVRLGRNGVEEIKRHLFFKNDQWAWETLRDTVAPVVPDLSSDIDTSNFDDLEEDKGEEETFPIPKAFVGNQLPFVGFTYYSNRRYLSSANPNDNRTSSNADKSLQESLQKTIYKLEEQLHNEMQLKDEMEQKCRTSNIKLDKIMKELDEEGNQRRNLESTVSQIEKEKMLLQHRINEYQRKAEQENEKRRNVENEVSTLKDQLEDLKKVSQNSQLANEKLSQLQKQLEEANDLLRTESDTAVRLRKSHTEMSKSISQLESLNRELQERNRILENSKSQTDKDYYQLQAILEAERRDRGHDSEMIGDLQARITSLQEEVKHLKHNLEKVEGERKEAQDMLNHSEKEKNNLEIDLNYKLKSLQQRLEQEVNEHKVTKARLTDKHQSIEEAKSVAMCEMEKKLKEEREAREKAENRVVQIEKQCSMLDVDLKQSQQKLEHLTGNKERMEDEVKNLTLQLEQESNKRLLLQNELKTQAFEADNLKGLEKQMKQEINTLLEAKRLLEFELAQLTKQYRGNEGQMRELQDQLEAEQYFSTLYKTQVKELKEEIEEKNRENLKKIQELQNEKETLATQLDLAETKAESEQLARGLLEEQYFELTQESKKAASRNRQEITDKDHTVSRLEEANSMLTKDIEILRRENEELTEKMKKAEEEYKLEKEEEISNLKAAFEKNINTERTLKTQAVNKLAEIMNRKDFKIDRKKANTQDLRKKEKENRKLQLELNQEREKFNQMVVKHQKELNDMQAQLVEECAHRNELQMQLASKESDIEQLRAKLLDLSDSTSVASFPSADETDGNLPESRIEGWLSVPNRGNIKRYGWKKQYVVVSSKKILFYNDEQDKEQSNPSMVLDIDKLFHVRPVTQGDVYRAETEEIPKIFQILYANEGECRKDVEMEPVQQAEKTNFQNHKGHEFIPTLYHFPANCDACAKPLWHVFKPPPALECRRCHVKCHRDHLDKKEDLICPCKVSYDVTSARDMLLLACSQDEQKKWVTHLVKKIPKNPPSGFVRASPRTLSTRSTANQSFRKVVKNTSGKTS
Lab note - IC50 converted to log10 from values in µM.

Previously resolved entries follow.
CCCC/C=C/c1cnc2ccc(N3CCOCC3)nn12 [Example 5, fumarate] = 0.99
c1cncc(-c2cnc3ccc(N4CCCNCC4)nn23)c1 [Example 57, trihydrochloride] = 1.80
CCCC/C=C/c1cnc2ccc(NCCCO)nn12 [Example 6, fumarate] = 1.48
CCCC/C=C/c1cnc2ccc(NCCCCN(C)C)nn12 [Example 46] = 0.70

Proceed to the following item.
// log10 of IC50 lookup, compound = CCCC/C=C/c1cnc2ccc(NCCCN3CCCC3)nn12 [Example 47, dihydrochloride] , result: 1.77

###

Reported IC50 values for a set of molecules
# SYSTEM NAME: ROCK 2 (Homo sapiens)
# Construct: purchased Molecular Devices, Sunnyvale, Calif
# METHOD NOTES: Rho kinase assay (IMAP ROCK-II kit, fluorescence polarization)
# Format: biochemical
# CONDITIONS USED: substrate 200 nM, ATP 10 μM, 60 min at 23° C.
Counter-ions that a name gives are not always drawn.

Previously resolved entries follow.
CCCCCCc1cnc2ccc(NCCCN3CCOCC3)nn12 [Example 17, hydrochloride] = > 100 µM
CCOCc1cnc2ccc(NCCCN3CCOCC3)nn12 = > 100 µM

// IC50 lookup, molecule = C1=C(c2cnc3ccc(NCCCN4CCOCC4)nn23)CCCC1 [Example 20, hydrochloride] , result: > 100 µM
